Tested on: SK-MEL-28 melanoma
Assay: NCI tumour cell line growth inhibition, 48 h
property-name: TGI

compound | TGI
COC(=O)[C@]12CC[C@H]3CN(C(=O)OCc4ccccc4)[C@H]([C@H]31)[C@H](c1ccco1)N2S(=O)(=O)c1ccc(C)cc1 | > 100 µM
O=C1CN2C(c3ccccc3)=NN(c3ccc([N+](=O)[O-])cc3)C2(c2ccccc2)c2cc(Cl)ccc2N1CC1CC1 (stereo unspecified) | > 100 µM
N#CCCN(CCC#N)c1ccc(/C=C2\N=C(c3ccccc3)N(c3ccc(Cl)cc3)C2=O)cc1 | > 100 µM
NC(=O)/C=C/C(=O)O | > 5000 µM
COc1ccc2cc3c4cc5c(cc4cc[n+]3cc2c1OC)OCO5 | 19.4 µM
Nc1c(-c2cccc3ccccc23)c2ccc([N+](=O)[O-])cc2c(=O)n1-c1nc2ccccc2s1 | > 100 µM

The compound CCCCCCCCCCCCCCCCCCNC(=O)[C@H]1CSC(c2cccs2)N1 (stereo partly specified) , tested on SK-MEL-28 melanoma, showed TGI of 1.43 µM

The compound C1=CC2=CC=CC3c4nc5ccc6ccccc6c5nc4C(=C1)C23 (stereo unspecified) , tested on SK-MEL-28 melanoma, showed TGI of > 100 µM

The compound COc1nc(C#CCC(C)O)nc(OC)n1 (stereo unspecified) , tested on SK-MEL-28 melanoma, showed TGI of > 100 µM

The compound "O=C1C=CC(=O)N1Nc1ccc([N+](=O)[O-])cc1[N+](=O)[O-]" , tested on SK-MEL-28 melanoma, showed TGI of > 59.2 µM

The compound CC(=O)N(C(C)=O)C1=C2c3ccccc3N(S(=O)(=O)c3ccccc3)C2n2c(=O)n(-c3ccccc3)c(=O)n2C1 (stereo unspecified) , tested on SK-MEL-28 melanoma, showed TGI of 58.2 µM

The compound "Cc1ccccc1C(O)(c1nccn1C)c1nccn1C" , tested on SK-MEL-28 melanoma, showed TGI of > 100 µM

The compound COc1cc(C2CC(C)(Nc3ccccc3)Oc3cc4c(cc32)OCO4)cc(OC)c1OC (stereo unspecified) , tested on SK-MEL-28 melanoma, showed TGI of > 100 µM

The compound "CC(=O)[O-].CC(=O)[O-].CC(=O)[O-].CC(=O)[O-].[Mo+2].[Mo+2]" , tested on SK-MEL-28 melanoma, showed TGI of > 100 µM

The compound "C=CCOC(=O)CC[N+]1=CCC(c2ccccc2)(c2ccccc2)O1" , tested on SK-MEL-28 melanoma, showed TGI of > 100 µM

The compound O=C1C2=C(c3ccccc31)C(c1ccccc1Cl)N1C(=O)CCSC1=N2 (stereo unspecified) , tested on SK-MEL-28 melanoma, showed TGI of > 100 µM

The compound "COc1ccccc1/C=C/C(=O)/C=C/c1ccccc1O" , tested on SK-MEL-28 melanoma, showed TGI of 3.72 µM

The compound O=C(/C=C/c1ccccc1)CC(c1ccccc1)N1CCOCC1 (stereo unspecified) , tested on SK-MEL-28 melanoma, showed TGI of 30 µM

The compound "COc1ccc(C#CC(=O)O)c(OC)c1" , tested on SK-MEL-28 melanoma, showed TGI of > 100 µM

The compound "NC(N)=NS(=O)(=O)c1ccc(NC(=O)c2cccc3c(Nc4ccc(S(N)(=O)=O)cc4)c4ccccc4nc23)cc1" , tested on SK-MEL-28 melanoma, showed TGI of > 100 µM

The compound "CCOC(=O)/C(=C/c1cccc(OC)c1)N(CC)CC" , tested on SK-MEL-28 melanoma, showed TGI of > 100 µM

----------
Test system: HCC-2998 colon
Assay: NCI tumour cell line growth inhibition, 48 h
property-name: TGI

molecule | property-name | measured
COc1c(Br)cc(Br)c(OC)c1-c1[nH]c(Br)c(Br)c1Br | TGI | 19.2 µM
O=S(=O)(O)c1cc2ccc1/C=C\c1ccc(cc1S(=O)(=O)O)N=Nc1ccc(c(S(=O)(=O)O)c1)/C=C\c1ccc(cc1S(=O)(=O)O)N=N2 | TGI | > 100 µM
O=c1ncccn1C1C=C(CO)C(O)C1O (stereo not given) | TGI | > 50 µM
CC1CCCc2c1nn(C(=O)/C=C(\N)c1ccccc1)c2N (stereo not given) | TGI | 85.5 µM
NC(N)=NS(=O)(=O)c1ccc(NC(=O)c2cccc3c(Nc4ccc(S(N)(=O)=O)cc4)c4ccccc4nc23)cc1 | TGI | > 100 µM
Cc1ccc2nc3c(Cl)c(C)c(=O)cc-3sc2c1 | TGI | > 100 µM
NC(=O)C1(N2CCCCC2)CCN(CCCC(=O)c2ccc(F)cc2)CC1 | TGI | 6.19 µM
COC(=O)c1c2c(cc3c1CC1(C3)Cc3cc4c(c(C(=O)OC)c3C1)CCCC4)CCCC2 | TGI | > 100 µM

Lab note: "COc1ccc(C#CC(=O)O)c(OC)c1" gave TGI of > 100 µM

Lab note: "C=CCSc1nc2ccccc2c(=O)n1Cc1ccco1" gave TGI of > 100 µM

----------
Tested on: MCF7 breast
Experiment: NCI tumour cell line growth inhibition, 48 h; in the data active = GI50 below about 0.43 µM; inactive = the rest
Answer with one of the outcomes given here: active, inactive

These solved cases illustrate the format of a correct answer.
compound | assigned-category
C[C@H]1[C@H](C)CC[C@]2(C(=O)NCCNCCN)CC[C@]3(C)C(=CC[C@@H]4[C@@]5(C)CCC(=O)C(C)(C)[C@@H]5CC[C@]43C)[C@H]12 | inactive
COc1cc([N+](=O)[O-])c(OC)cc1-c1nc2sc(Cl)cn2c1/C=N/Nc1ccccn1 | inactive
COc1ccc(-c2nnc(N3CCN(C(=O)CN4CCN(c5ccc(OC)cc5)CC4)CC3)nc2-c2ccc(OC)cc2)cc1 | inactive
c1ccc2nc3c(cc4ccccn43)nc2c1 | inactive
CCOC1Oc2ccccc2-c2oc(=O)c(Sc3ccc(C)cc3)cc21 (stereo not drawn) | inactive

Data request: How did this test come out for "CC1(C)N=C(N)N=C(N)N1c1ccc(OCC(=O)Nc2ccccc2)c(Cl)c1" ?
Data returned: inactive

Data request: How did this test come out for "CCCCCCCCCCN=C(c1ccc(N(C)C)cc1)c1ccc(N(C)C)cc1" ?
Data returned: active

Data request: How did this test come out for C=C1CC2(OC1=O)C(=O)N(CCCN1C(=O)C3(CC(=C)C(=O)O3)c3ccccc31)c1ccccc12 (stereo not drawn) ?
Data returned: inactive

----------
Tested on: KM12 colon
Test: NCI tumour cell line growth inhibition, 48 h
property-name: TGI

compound | TGI
O=C(NC(Cc1ccc(I)cc1)C(=O)O)c1ccc(I)cc1 (stereo unspecified) | > 100 µM

Lab note: "O=c1c2cc3c(cc2[nH]c2ncccc12)OCO3" gave TGI of > 10 µM

Lab note: "Cc1cc2c(Br)cc(Br)c(O)c2nc1C(=O)c1ccccc1" gave TGI of > 100 µM

Lab note: "Cc1ncc(C(=O)Nc2ccc(CN3CCN(C)CC3)c(C(F)(F)F)c2)cc1C#Cc1cnc(NC2CC2)c2ncccc12" gave TGI of 0.819 µM

Lab note: "CC(C)/C(Cl)=N\OC(=O)Nc1ccc(C#N)cc1" gave TGI of 29.9 µM

Lab note: "COc1ccc(/C=C2/CCc3cc4ccc(OC)cc4[o+]c32)c(O)c1" gave TGI of 7.44 µM

----------
Tested on: NCI-H23 lung
Assay: NCI tumour cell line growth inhibition, 48 h
# reported TGI; entries follow

Below are worked cases with known answers.
compound | system-tested | TGI
COc1ccc(C(OCC2OC(n3cc(C)c(=O)[nH]c3=O)CC2n2cc(Cn3cc(F)c(=O)[nH]c3=O)nn2)(c2ccccc2)c2ccccc2)cc1 (stereo not given) | NCI-H23 lung | 27.9 µM
O=C1c2cc3c(cc2CC1Br)CCC3 (stereo not given) | NCI-H23 lung | 9.27 µM
Nc1c(-c2cccc3ccccc23)c2ccc([N+](=O)[O-])cc2c(=O)n1-c1nc2ccccc2s1 | NCI-H23 lung | > 100 µM
CCN(CC)CC(=O)N1CCc2c([nH]c3ccccc23)C1c1cccnc1 (stereo not given) | NCI-H23 lung | > 100 µM
Cn1cc(-c2csc(-c3cn(C)c4ccccc34)n2)c2cnccc21 | NCI-H23 lung | 3.44 µM

Lab note: "CC(=O)NNc1nc(C)c(C(=O)NNC(=O)C(=O)Nc2nc3ccc([N+](=O)[O-])cc3s2)s1" gave TGI of > 100 µM

Lab note: O=C1CN2C(c3ccccc3)=NN(c3ccc([N+](=O)[O-])cc3)C2(c2ccccc2)c2cc(Cl)ccc2N1CC1CC1 (stereo not given) gave TGI of > 100 µM

Lab note: "N#CC(C#N)=CNC(=S)c1ccncc1" gave TGI of > 100 µM

Lab note: O=C(O)CCC(NC(=S)S)C(=O)O.[Na+].[Zn+2] (stereo not given) gave TGI of > 50 µM

Lab note: "CSc1c(C)c(C)nn1-c1ccccc1" gave TGI of > 100 µM
